Tested on: G-clamp-N3 (biotin conjugate)
PROTOCOL: pull-down binding Z-score (relative to library population); higher = stronger binding
EXPERIMENTAL_CONDITIONS: RNA library: Library-1 (pre-miRNA loops + repeats)
RECORDED_METRIC: pull-down binding Z-score

# example entries with known answers
| RESIDUE_STRING | RESULT |
| --- | --- |
| CCAGUGGUUUUCCUUGACUGUG [hsa-mir-298] | 1.54 |
| GGUGGGUGCC [hsa-mir-1268b] | -0.587 |
| UGUCGUAGAAAGUAAUGGCA [hsa-mir-548l] | 0.662 |
| UCCUGAUCUGAUGGAAGUCAUGA [hsa-mir-7843] | -0.244 |
| AGUUUGUGAUAAUGUUUGUCUAUAUAGUUAUGAAUG [hsa-mir-4307] | 0.397 |
| ACCACUGUGAAGACAGUAAAAUGUACAGUGGU [hsa-mir-597] | 0.0112 |
| GGCUUUGGCAUCUAUGAAAGCC [hsa-mir-4755] | 0.33 |
| GUGGCUUGUGGCUGAGUGUCACGCUGC [hsa-mir-6068] | 0.217 |
| AUGUGUUGUGAUGGCACAGCGU [hsa-mir-592] | -0.64 |
| AUGGAGAACGCCCCCACCAGUUCCCAC [hsa-mir-6767] | -0.992 |

Note: attention shifts to another entry.
Exam item: Give the reported pull-down binding Z-score for this sequence. CUGUGGUGGCUGCUCAUGCACCACGG [hsa-mir-105-1]
Marked response: 1.44

----------
Tested on: TO-3-N3-2 (biotin conjugate)
PROTOCOL: pull-down binding Z-score (relative to library population); higher = stronger binding
EXPERIMENTAL_CONDITIONS: RNA library: Library-2
# label = Y if pull-down binding Z-score >= -0.1 else N

| RESIDUE_STRING | QUALITATIVE_LABEL |
| --- | --- |
| CUAAGCUAUGGACUGCUAUGGACUGCUAG [hsa-mir-4473] | Y |

Exam item: Could you verify whether the entry AUUUCUGUGUUCGUUAGGCAACAG [hsa-mir-221] shows pull-down binding Z-score of no less than -0.1?
Marked response: Y

Exam item: Could you verify whether the entry GAGUUUGGAAUUAAAAUCAAAACC [hsa-mir-181a-1] shows pull-down binding Z-score of no less than -0.1?
Marked response: N

----------
Tested on: TO-3-N3-2 (biotin conjugate)
PROTOCOL: pull-down binding Z-score (relative to library population); higher = stronger binding
EXPERIMENTAL_CONDITIONS: RNA library: Library-2
RECORDED_METRIC: pull-down binding Z-score

# example entries with known answers
| RESIDUE_STRING | RESULT |
| --- | --- |
| AAGUAGUUGGCGUCUUCAGAGACACUU [hsa-mir-643] | 0.0519 |
| UGUACAUACAGCUAAUAAAUGGGAUCUCAUUAUUAGUGAUAUGUACG [DMSMaPseq_invitro_SARS-CoV-2_Motif_370] | -0.188 |
| CUCCAGCACGGAG [IAV_invivo_PB2_1_Motif_21+IAV_invivo_PB2_1_Motif_21] | -0.425 |
| GAAUUUACACCUUUUGAUGUUGUUAGACAAUGCUCAGGUGUUACUUUC | -0.394 |

Exam item: Would you please give the reported pull-down binding Z-score of CUUUUAUGUGCCUUGAUAUAAAAG [hsa-mir-3910-2] with TO-3-N3-2 (biotin conjugate)?
Marked response: -0.297

Exam item: Would you please give the reported pull-down binding Z-score of GGGCAUUCCGGAUAGGCCGAGAAAGUGUUG [hsa-mir-6723] with TO-3-N3-2 (biotin conjugate)?
Marked response: 0.568

Exam item: Would you please give the reported pull-down binding Z-score of GUUCUCAGUACAGAGAAAUCUCCCUUUUGACAGAACAACCAUUAUGGCAGCAUUCAAUGGGAAUACAGAGGGGAGAACAUCUGACAUGAGGAC [IAV_invivo_NP_5_Motif_22+IAV_invivo_NP_5_Motif_22] with TO-3-N3-2 (biotin conjugate)?
Marked response: -0.129

Exam item: Would you please give the reported pull-down binding Z-score of GAAAAUGACUCUAAAGAGGGUUUUUUC [SHAPE_invitro_SARS-CoV-2_Motif_382] with TO-3-N3-2 (biotin conjugate)?
Marked response: -0.323

Exam item: Would you please give the reported pull-down binding Z-score of GUCUGUCACUGGGGAAGUC [hsa-mir-4682] with TO-3-N3-2 (biotin conjugate)?
Marked response: 0.276

Exam item: Would you please give the reported pull-down binding Z-score of UGGAGGUGAUGGAUGUUUUCCUCCG [hsa-mir-671] with TO-3-N3-2 (biotin conjugate)?
Marked response: -0.398

Exam item: Would you please give the reported pull-down binding Z-score of UGGUUUCACUA [hsa-mir-3713] with TO-3-N3-2 (biotin conjugate)?
Marked response: -0.427

Exam item: Would you please give the reported pull-down binding Z-score of GCGCGGCCAGAAACUGGCAGCGC [mismatch-GA] with TO-3-N3-2 (biotin conjugate)?
Marked response: -0.798

Exam item: Would you please give the reported pull-down binding Z-score of GCGCCGCCAGAAACUGGCCGCGC [mismatch-CC] with TO-3-N3-2 (biotin conjugate)?
Marked response: -0.533

Exam item: Would you please give the reported pull-down binding Z-score of GCUUCUGCUGCAUGAUCUCCGAGUCCCUGGGGGUAGAGAUGAUGGGGCACUGGGAGGU [hsa-mir-1282] with TO-3-N3-2 (biotin conjugate)?
Marked response: 0.312

----------
Test system: TO-N3 (biotin conjugate)
PROTOCOL: pull-down binding Z-score (relative to library population); higher = stronger binding
EXPERIMENTAL_CONDITIONS: RNA library: Library-2
# label = rule met if pull-down binding Z-score >= -0.07 else rule not met

| RESIDUE_STRING | QUALITATIVE_LABEL |
| --- | --- |
| AGGAGUUCACU [hsa-mir-1183] | rule not met |

Exam item: Could you verify whether the entry GAGCUCAGGAGCUC [hsa-mir-8052] shows pull-down binding Z-score of no less than -0.07?
Marked response: rule not met

Exam item: Could you verify whether the entry CUUAAUAGAUUAAUAUUUGUAAG [hsa-mir-506] shows pull-down binding Z-score of no less than -0.07?
Marked response: rule not met

Exam item: Could you verify whether the entry `AUACCUGCACGUGCUCGUGUAGAGUGU` shows pull-down binding Z-score of no less than -0.07?
Marked response: rule met

Exam item: Could you verify whether the entry CACCAGCCAGGCAUUGCUCAGCCCGUUUCCCUCUGGGGGAGCAAGGAGUGGUGCUGGGUUUGUC [hsa-mir-593] shows pull-down binding Z-score of no less than -0.07?
Marked response: rule met

Exam item: Could you verify whether the entry GGACUCAGCCCUGUGCUGAGCCC [hsa-mir-5587] shows pull-down binding Z-score of no less than -0.07?
Marked response: rule met

----------
Tested on: TO-3-N3 (biotin conjugate)
PROTOCOL: pull-down binding Z-score (relative to library population); higher = stronger binding
EXPERIMENTAL_CONDITIONS: RNA library: Library-2
The recorded pull-down binding Z-score of each item maps onto one of these classes: bottom bin = under -0.3, middle bin = from -0.3 up to 0.03, top bin = 0.03 and over

Record excerpt, results attached:
| RESIDUE_STRING | QUALITATIVE_LABEL |
| --- | --- |
| AGGCAUUAGGAUCCUUAUUCUUGCCU [hsa-mir-4788] | middle bin |
| UGGAAUUGCAAUGUCGAUAGAUAUCCUGCUAAUUCCA | middle bin |
| AUCUGAAUUCUUCUAGAGUUCCUGAU | top bin |

We now examine a further sequence.
Exam item: Lab log: UUUGCCAUUAAAAGUAAUGCGGCCAA [hsa-mir-548o-2] — assign pull-down binding Z-score category
Marked response: middle bin

----------
System: TO-N3-2 (biotin conjugate)
PROTOCOL: pull-down binding Z-score (relative to library population); higher = stronger binding
EXPERIMENTAL_CONDITIONS: RNA library: Library-2
The recorded pull-down binding Z-score of each item maps onto one of these classes: category 1 (below -0.4), category 2 (-0.4 to below 0.07), category 3 (0.07 or more)

Exam item: Lab log: GGUUUGUUGCC [IAV_invivo_PB1_2_Motif_26+IAV_invivo_PB1_2_Motif_26] — assign pull-down binding Z-score category
Marked response: category 2

Exam item: Lab log: UGAGUGGCAUAAUCAGAGUACAAUUUGAGUCAUGCCCAUACAUCA [hsa-mir-23c] — assign pull-down binding Z-score category
Marked response: category 2

Exam item: Lab log: `GGCAGACGUGGUCCAGAACAAACCCAAGGAAAUUUUGGGGACCAGGAACUAAUCAGACAAGGAACUGAUUACAAACAUUGGCC` — assign pull-down binding Z-score category
Marked response: category 3

Exam item: Lab log: AUUCUAUUCUAUUCUAUUCU [r(AUUCU)4] — assign pull-down binding Z-score category
Marked response: category 1

Exam item: Lab log: GGUAUGGAUUCUGUUGUUUUGGCAACAUUCU [hsa-mir-8088] — assign pull-down binding Z-score category
Marked response: category 2

Exam item: Lab log: ACCUAACACACUGCCUUUUAUGUGGUAGGU [hsa-mir-5094] — assign pull-down binding Z-score category
Marked response: category 1
